TEST: activity coefficient (dimensionless); of the first substance listed, at infinite dilution; xn = mol fraction of the nth substance listed
TEST_CONTEXT: 333.15 K; Liquid; Chromatography; x1 = 0
API: label(entry) gives class 1 if the entry's activity coefficient is strictly smaller than 1; on equality or larger values it gives class 0.

MOLECULE: C#CCCCCC [1-heptyne] + Cn1cc[n+](COCCCOC[n+]2ccn(C)c2)c1.O=S(=O)([N-]S(=O)(=O)C(F)(F)F)C(F)(F)F.O=S(=O)([N-]S(=O)(=O)C(F)(F)F)C(F)(F)F
GROUP: class 0

MOLECULE: ClC(Cl)Cl [trichloromethane] + CCCCCCCCn1cc[n+](COCCCOC[n+]2ccn(CCCCCCCC)c2C)c1C.O=S(=O)([N-]S(=O)(=O)C(F)(F)F)C(F)(F)F.O=S(=O)([N-]S(=O)(=O)C(F)(F)F)C(F)(F)F
GROUP: class 1

MOLECULE: CO [methanol] + Cn1cc[n+](COCCCOC[n+]2ccn(C)c2)c1.N#C[N-]C#N.N#C[N-]C#N
GROUP: class 1

MOLECULE: c1ccccc1 [benzene] + CCCCCCCCn1cc[n+](COCCCOC[n+]2ccn(CCCCCCCC)c2C)c1C.N#C[N-]C#N.N#C[N-]C#N
GROUP: class 1

MOLECULE: CCCCCCCCC [nonane] + CCCOC[n+]1ccc(N(C)C)cc1.O=S(=O)([N-]S(=O)(=O)C(F)(F)F)C(F)(F)F
GROUP: class 0

MOLECULE: CC(C)O [propan-2-ol] + Cn1cc[n+](COCCCOC[n+]2ccn(C)c2)c1.O=S(=O)([N-]S(=O)(=O)C(F)(F)F)C(F)(F)F.O=S(=O)([N-]S(=O)(=O)C(F)(F)F)C(F)(F)F
GROUP: class 0

====

# activity coefficient per record follows
TEST: activity coefficient (dimensionless); of the first substance listed, at infinite dilution; xn = mol fraction of the nth substance listed
TEST_CONTEXT: 323.15 K; Liquid; Chromatography; x1 = 0

COMPOUND: CC(C)O [propan-2-ol] + CCCOC[n+]1ccn(Cc2ccccc2)c1.N#C[N-]C#N
activity coefficient: 0.85
--
COMPOUND: Cc1ccccc1 [toluene] + CCCOC[n+]1ccn(Cc2ccccc2)c1.O=S(=O)([N-]S(=O)(=O)C(F)(F)F)C(F)(F)F
activity coefficient: 1.09
--
COMPOUND: CCc1ccccc1 [ethylbenzene] + CCCOC[n+]1ccn(C)c1.N#C[N-]C#N
activity coefficient: 6
--
COMPOUND: CCC(C)=O [butanone] + CCCOC[n+]1ccn(C)c1.O=S(=O)([N-]S(=O)(=O)C(F)(F)F)C(F)(F)F
activity coefficient: 0.47
--
COMPOUND: CCCCCCCCCC [decane] + CCCCCCCCn1cc[n+](COCCCOC[n+]2ccn(CCCCCCCC)c2C)c1C.N#C[N-]C#N.N#C[N-]C#N
activity coefficient: 19.5
--
COMPOUND: Cc1cccc(C)c1 [1,3-dimethylbenzene] + CCCCCCCCn1cc[n+](COCCCOC[n+]2ccn(CCCCCCCC)c2C)c1C.N#C[N-]C#N.N#C[N-]C#N
activity coefficient: 1.36
--
COMPOUND: CCC(C)CC [3-methylpentane] + Cn1cc[n+](COCCCOC[n+]2ccn(C)c2)c1.O=S(=O)([N-]S(=O)(=O)C(F)(F)F)C(F)(F)F.O=S(=O)([N-]S(=O)(=O)C(F)(F)F)C(F)(F)F
activity coefficient: 39.2

====

TEST: activity coefficient (dimensionless); of the first substance listed, at infinite dilution; xn = mol fraction of the nth substance listed
TEST_CONTEXT: 333.15 K; Liquid; Chromatography; x1 = 0

COMPOUND: C#CCCCCC [1-heptyne] + CCCOC[n+]1ccn(Cc2ccccc2)c1.N#C[N-]C#N
activity coefficient: 6.08
--
COMPOUND: c1ccsc1 [thiophene] + N#C[N-]C#N.N#C[N-]C#N.c1ccc(Cn2cc[n+](COCCCOC[n+]3ccn(Cc4ccccc4)c3)c2)cc1
activity coefficient: 1.64
--
COMPOUND: CCC(C)CC [3-methylpentane] + CCCOC[n+]1ccn(Cc2ccccc2)c1.O=S(=O)([N-]S(=O)(=O)C(F)(F)F)C(F)(F)F
activity coefficient: 6.59
--
COMPOUND: ClC(Cl)Cl [trichloromethane] + Cn1cc[n+](COCCCOC[n+]2ccn(C)c2)c1.N#C[N-]C#N.N#C[N-]C#N
activity coefficient: 1.08
--
COMPOUND: Cc1ccccc1C [1,2-dimethylbenzene] + CCCOC[n+]1ccn(Cc2ccccc2)c1.F[B-](F)(F)F
activity coefficient: 4.17
--
COMPOUND: CCC[N+](=O)[O-] [1-nitropropane] + CCCOC[n+]1ccn(Cc2ccccc2)c1.O=S(=O)([N-]S(=O)(=O)C(F)(F)F)C(F)(F)F
activity coefficient: 0.46
--
COMPOUND: C#CCCCC [1-hexyne] + CCCOC[n+]1ccn(C)c1.F[B-](F)(F)F
activity coefficient: 10.1
--
COMPOUND: CCO [ethanol] + CCCOC[n+]1ccn(C)c1.F[B-](F)(F)F
activity coefficient: 1.9
--
COMPOUND: CCC(C)=O [butanone] + CCCOC[n+]1ccn(C)c1.N#C[N-]C#N
activity coefficient: 1.19
--
COMPOUND: c1ccsc1 [thiophene] + CCCOC[n+]1ccn(C)c1.F[B-](F)(F)F
activity coefficient: 2.27
--
COMPOUND: C1CCCCC1 [cyclohexane] + CCCOC[n+]1ccc(N(C)C)cc1.O=S(=O)([N-]S(=O)(=O)C(F)(F)F)C(F)(F)F
activity coefficient: 6.83
--
COMPOUND: CCCCO [butan-1-ol] + CCCCCCCCn1cc[n+](COCCCOC[n+]2ccn(CCCCCCCC)c2C)c1C.O=S(=O)([N-]S(=O)(=O)C(F)(F)F)C(F)(F)F.O=S(=O)([N-]S(=O)(=O)C(F)(F)F)C(F)(F)F
activity coefficient: 0.74
--
COMPOUND: C#CCCCCC [1-heptyne] + CCCCCCCCn1cc[n+](COCCCOC[n+]2ccn(CCCCCCCC)c2C)c1C.N#C[N-]C#N.N#C[N-]C#N
activity coefficient: 2.12
--
COMPOUND: CCCCCCCCCCC [undecane] + CCCOC[n+]1ccc(N(C)C)cc1.O=S(=O)([N-]S(=O)(=O)C(F)(F)F)C(F)(F)F
activity coefficient: 52.9
--
COMPOUND: c1ccncc1 [pyridine] + CCCOC[n+]1ccn(Cc2ccccc2)c1.O=S(=O)([N-]S(=O)(=O)C(F)(F)F)C(F)(F)F
activity coefficient: 0.28
--
COMPOUND: CCc1ccccc1 [ethylbenzene] + Cn1cc[n+](COCCCOC[n+]2ccn(C)c2)c1.N#C[N-]C#N.N#C[N-]C#N
activity coefficient: 10.9
--
COMPOUND: CC(C)O [propan-2-ol] + CCCOC[n+]1ccn(C)c1.N#C[N-]C#N
activity coefficient: 1.07
--
COMPOUND: CCCCO [butan-1-ol] + CCCOC[n+]1ccn(C)c1.F[B-](F)(F)F
activity coefficient: 4.17
--
COMPOUND: CCC[N+](=O)[O-] [1-nitropropane] + CCCOC[n+]1ccc(N(C)C)cc1.O=S(=O)([N-]S(=O)(=O)C(F)(F)F)C(F)(F)F
activity coefficient: 0.69
--
COMPOUND: CCCCCCCCCCC [undecane] + Cn1cc[n+](COCCCOC[n+]2ccn(C)c2)c1.N#C[N-]C#N.N#C[N-]C#N
activity coefficient: 899
--
COMPOUND: CCCCO [butan-1-ol] + Cn1cc[n+](COCCCOC[n+]2ccn(C)c2)c1.N#C[N-]C#N.N#C[N-]C#N
activity coefficient: 1.9
--
COMPOUND: c1ccsc1 [thiophene] + CCCOC[n+]1ccn(Cc2ccccc2)c1.N#C[N-]C#N
activity coefficient: 1.02
--
COMPOUND: Cc1ccccc1C [1,2-dimethylbenzene] + CCCOC[n+]1ccn(C)c1.O=S(=O)([N-]S(=O)(=O)C(F)(F)F)C(F)(F)F
activity coefficient: 2.28
--
COMPOUND: C#CCCCCC [1-heptyne] + CCCOC[n+]1ccn(C)c1.F[B-](F)(F)F
activity coefficient: 16.7
--
COMPOUND: CC(C)OC(C)C [diisopropyl ether] + CCCCCCCCn1cc[n+](COCCCOC[n+]2ccn(CCCCCCCC)c2C)c1C.O=S(=O)([N-]S(=O)(=O)C(F)(F)F)C(F)(F)F.O=S(=O)([N-]S(=O)(=O)C(F)(F)F)C(F)(F)F
activity coefficient: 1.56
--
COMPOUND: CC(C)OC(C)C [diisopropyl ether] + CCCCCCCCn1cc[n+](COCCC)c1C.N#C[N-]C#N
activity coefficient: 4.05
--
COMPOUND: CC(C)OC(C)C [diisopropyl ether] + CCCCCCCCn1cc[n+](COCCC)c1C.O=S(=O)([N-]S(=O)(=O)C(F)(F)F)C(F)(F)F
activity coefficient: 1.86
--
COMPOUND: c1ccccc1 [benzene] + CCCOC[n+]1ccn(C)c1.F[B-](F)(F)F
activity coefficient: 3.45
--
COMPOUND: CCC[N+](=O)[O-] [1-nitropropane] + CN(C)c1cc[n+](COCCCOC[n+]2ccc(N(C)C)cc2)cc1.O=S(=O)([N-]S(=O)(=O)C(F)(F)F)C(F)(F)F.O=S(=O)([N-]S(=O)(=O)C(F)(F)F)C(F)(F)F
activity coefficient: 0.59
